Cited source for all entries: paper PMC10463376

Readings of IC50 for the listed compounds
Tested on: HePG2 liver cancer cells
methodNotes: MTT assay, HePG2
statedConditions: Homo sapiens, HepG2, 72 h, read-out: IC50 HePG2
Give the value, in units of µg/mL, as a plain number.

Some entries whose results are on file:
COc1ccc(-c2c(Cl)n(-c3ccc(Cl)cc3Cl)c3ncnc(N4CCOCC4)c23)cc1OC [Compound 18b]; 28.1
COc1nc(C(Cl)(Cl)Cl)nc2c1c(-c1ccc(Br)cc1)c(Cl)n2-c1ccc(Cl)cc1Cl; 17.8

With those in mind, consider the next compound.
Prompt: Quick one: IC50 for "NNc1nc(C(Cl)(Cl)Cl)nc2c1c(-c1ccc(Br)cc1)c(Cl)n2-c1ccc(Cl)cc1Cl" ?
Response: 29.1

###

System: HePG2 liver cancer cells
methodNotes: MTT assay, HePG2
statedConditions: Homo sapiens, HepG2, 72 h, read-out: IC50 HePG2
Readings of IC50 for the listed molecules
Give the value, in units of µg/mL, as a plain number.

O=c1[nH]cnc2c1c(-c1ccc(Br)cc1)cn2-c1ccc(Cl)cc1Cl; 19.2
COc1ccc(-c2c(Cl)n(-c3ccc(Cl)cc3Cl)c3ncnc(NN)c23)cc1OC [Compound 14b]; 17.5

Prompt: Quick one: IC50 for NNc1ncnc2c1c(-c1ccc(Br)cc1)c(Cl)n2-c1ccc(Cl)cc1Cl [Compound 14a] ?
Response: 37.9

Prompt: Quick one: IC50 for "Clc1ccc(-n2c(Cl)c(-c3ccc(Br)cc3)c3c(N4CCOCC4)nc(C(Cl)(Cl)Cl)nc32)c(Cl)c1" ?
Response: 19.4

Prompt: Quick one: IC50 for "COc1ccc(-c2c(Cl)n(-c3ccc(Cl)cc3Cl)c3ncnc(Cl)c23)cc1OC" ?
Response: 84.3

Prompt: Quick one: IC50 for "CN1CCN(c2nc(C(Cl)(Cl)Cl)nc3c2c(-c2ccc(Br)cc2)c(Cl)n3-c2ccc(Cl)cc2Cl)CC1" ?
Response: 8.7

Prompt: Quick one: IC50 for COc1cccc2c1C(=O)c1c(O)c3c(c(O)c1C2=O)C[C@@](O)(C(=O)CO)C[C@@H]3O[C@H]1C[C@H](N)[C@H](O)[C@H](C)O1 [Dox, Doxorubicin, reference compound] ?
Response: 21.6

###

Tested on: PC3 prostate cancer cells
methodNotes: MTT assay, PC3
statedConditions: read-out: MTT cell proliferation mortality assay (%) PC3; at 100 μg/ml, 72 h
Description: All of the following steps were done in a sterile Laminar flow class II biosafety cabinet (Baker, SG406INT, Sanford, ME, USA). […] The absorbance was then measured at a wavelength of 595 nm and the reference wavelength was set at 620 nm using a microplate multi-well reader (Bio-Rad Laboratories Inc., model 3356, California, USA). […] A statistical significance analysis was determined between the samples and the negative control using an independent t-test by SPSS 11 program. […]
testReadout: cytotoxicity (%)
Give the value, in units of %, as a plain number.

Prompt: Quick one: cytotoxicity for CN1CCN(c2nc(C(Cl)(Cl)Cl)nc3c2c(-c2ccc(Br)cc2)c(Cl)n3-c2ccc(Cl)cc2Cl)CC1 [Compound 17] ?
Response: 79.5

###

methodNotes: MTT assay, normal cell line BJ1
Format: cell-based
statedConditions: human, at 100 μg/ml, read-out: MTT cell proliferation mortality assay (%) BJ1
testReadout: cytotoxicity at 72 h, 100 μg/ml (%)
Give the value, in units of %, as a plain number.

Some entries whose results are on file:
NNc1nc(C(Cl)(Cl)Cl)nc2c1c(-c1ccc(Br)cc1)c(Cl)n2-c1ccc(Cl)cc1Cl; 4.5
Clc1ccc(-n2c(Cl)c(-c3ccc(Br)cc3)c3c(N4CCOCC4)ncnc32)c(Cl)c1 [Compound 18a]; 3.2
Clc1ccc(-n2c(Cl)c(-c3ccc(Br)cc3)c3c(Cl)nc(C(Cl)(Cl)Cl)nc32)c(Cl)c1; 100

With those in mind, consider the next compound.
Prompt: Quick one: cytotoxicity at 72 h, 100 μg/ml for "Clc1ccc(-n2c(Cl)c(-c3ccc(Br)cc3)c3c(Cl)ncnc32)c(Cl)c1" ?
Response: 74.6

###

System: HCT116 colorectal cancer cells
methodNotes: MTT assay, HCT116
statedConditions: Homo sapiens, HCT-116, 72 h, read-out: MTT cell proliferation mortality assay (%) HCT116, at 100 μg/ml, 72 h
testReadout: cytotoxicity at 100 µg/mL (%)
Give the value, in units of %, as a plain number.

Some entries whose results are on file:
COc1ccc(-c2c(Cl)n(-c3ccc(Cl)cc3Cl)c3ncnc(N4CCCC4)c23)cc1OC [Compound 11b]; 33.5
COc1ccc(-c2c(Cl)n(-c3ccc(Cl)cc3Cl)c3ncnc(NN)c23)cc1OC [Compound 14b]; 100
CN1CCN(c2ncnc3c2c(-c2ccc(Br)cc2)c(Cl)n3-c2ccc(Cl)cc2Cl)CC1 [Compound 16a]; 73.2
Clc1ccc(-n2c(Cl)c(-c3ccc(Br)cc3)c3c(Cl)nc(C(Cl)(Cl)Cl)nc32)c(Cl)c1; 100
Clc1ccc(-n2c(Cl)c(-c3ccc(Br)cc3)c3c(N4CCOCC4)ncnc32)c(Cl)c1 [Compound 18a]; 54.2
NNc1ncnc2c1c(-c1ccc(Br)cc1)c(Cl)n2-c1ccc(Cl)cc1Cl [Compound 14a]; 100
CN1CCN(c2nc(C(Cl)(Cl)Cl)nc3c2c(-c2ccc(Br)cc2)c(Cl)n3-c2ccc(Cl)cc2Cl)CC1; 100
Cc1nc2c(c(-c3ccc(Br)cc3)cn2-c2ccc(Cl)cc2Cl)c(=O)[nH]1; 100

Prompt: Quick one: cytotoxicity at 100 µg/mL for Clc1ccc(-n2c(Cl)c(-c3ccc(Br)cc3)c3c(N4CCCC4)ncnc32)c(Cl)c1 [Compound 11a] ?
Response: 44.2

Prompt: Quick one: cytotoxicity at 100 µg/mL for "S=c1[nH]cnc2c1c(-c1ccc(Br)cc1)c(Cl)n2-c1ccc(Cl)cc1Cl" ?
Response: 64.3

Prompt: Quick one: cytotoxicity at 100 µg/mL for "Clc1ccc(-n2c(Cl)c(-c3ccc(Br)cc3)c3c(Cl)ncnc32)c(Cl)c1" ?
Response: 74.2

Prompt: Quick one: cytotoxicity at 100 µg/mL for "COc1ccc(-c2cn(-c3ccc(Cl)cc3Cl)c3nc[nH]c(=O)c23)cc1OC" ?
Response: 14.6

Prompt: Quick one: cytotoxicity at 100 µg/mL for "COc1ncnc2c1c(-c1ccc(Br)cc1)c(Cl)n2-c1ccc(Cl)cc1Cl" ?
Response: 52.1

Prompt: Quick one: cytotoxicity at 100 µg/mL for "CSc1ncnc2c1c(-c1ccc(Br)cc1)c(Cl)n2-c1ccc(Cl)cc1Cl" ?
Response: 60.2

Prompt: Quick one: cytotoxicity at 100 µg/mL for "Clc1ccc(-n2cc(-c3ccc(Br)cc3)c3c(Cl)ncnc32)c(Cl)c1" ?
Response: 60.4

Prompt: Quick one: cytotoxicity at 100 µg/mL for "COc1ccc(-c2c(Cl)n(-c3ccc(Cl)cc3Cl)c3ncnc(OC)c23)cc1OC" ?
Response: 45.6

Prompt: Quick one: cytotoxicity at 100 µg/mL for "NNc1nc(C(Cl)(Cl)Cl)nc2c1c(-c1ccc(Br)cc1)c(Cl)n2-c1ccc(Cl)cc1Cl" ?
Response: 100

Prompt: Quick one: cytotoxicity at 100 µg/mL for "Clc1ccc(-n2c(Cl)c(-c3ccc(Br)cc3)c3c(N4CCOCC4)nc(C(Cl)(Cl)Cl)nc32)c(Cl)c1" ?
Response: 35.9

Prompt: Quick one: cytotoxicity at 100 µg/mL for "Clc1ccc(-n2c(Cl)c(-c3ccc(Br)cc3)c3c(N4CCCC4)nc(C(Cl)(Cl)Cl)nc32)c(Cl)c1" ?
Response: 100

###

methodNotes: MTT assay, normal cell line BJ1
Format: cell-based
statedConditions: human, at 100 μg/ml, read-out: MTT cell proliferation mortality assay (%) BJ1
Readings of cytotoxicity at 72 h, 100 μg/ml for the listed compounds
Give the value, in units of %, as a plain number.

Some entries whose results are on file:
COc1ccc(-c2c(Cl)n(-c3ccc(Cl)cc3Cl)c3ncnc(N4CCCC4)c23)cc1OC [Compound 11b]; 56.9
Clc1ccc(-n2c(Cl)c(-c3ccc(Br)cc3)c3c(N4CCCC4)ncnc32)c(Cl)c1 [Compound 11a]; 47.3
COc1ccc(-c2cn(-c3ccc(Cl)cc3Cl)c3nc[nH]c(=O)c23)cc1OC; 3.5

Prompt: Quick one: cytotoxicity at 72 h, 100 μg/ml for "COc1nc(C(Cl)(Cl)Cl)nc2c1c(-c1ccc(Br)cc1)c(Cl)n2-c1ccc(Cl)cc1Cl" ?
Response: 15.6

Prompt: Quick one: cytotoxicity at 72 h, 100 μg/ml for "O=c1[nH]cnc2c1c(-c1ccc(Br)cc1)cn2-c1ccc(Cl)cc1Cl" ?
Response: 95.3

Prompt: Quick one: cytotoxicity at 72 h, 100 μg/ml for CN1CCN(c2ncnc3c2c(-c2ccc(Br)cc2)c(Cl)n3-c2ccc(Cl)cc2Cl)CC1 [Compound 16a] ?
Response: 70.5

Prompt: Quick one: cytotoxicity at 72 h, 100 μg/ml for NNc1ncnc2c1c(-c1ccc(Br)cc1)c(Cl)n2-c1ccc(Cl)cc1Cl [Compound 14a] ?
Response: 30.8

Prompt: Quick one: cytotoxicity at 72 h, 100 μg/ml for "CN1CCN(c2nc(C(Cl)(Cl)Cl)nc3c2c(-c2ccc(Br)cc2)c(Cl)n3-c2ccc(Cl)cc2Cl)CC1" ?
Response: 12.5
